# targetOfAssay: REFACTO® (recombinant factor VIII-like polypeptide consisting of amino acids 1-743 and 1638 through 2332 of human factor VIII) (human) (UniProt P00451)
# Sequence (P00451 20-762, chain 1 of 2): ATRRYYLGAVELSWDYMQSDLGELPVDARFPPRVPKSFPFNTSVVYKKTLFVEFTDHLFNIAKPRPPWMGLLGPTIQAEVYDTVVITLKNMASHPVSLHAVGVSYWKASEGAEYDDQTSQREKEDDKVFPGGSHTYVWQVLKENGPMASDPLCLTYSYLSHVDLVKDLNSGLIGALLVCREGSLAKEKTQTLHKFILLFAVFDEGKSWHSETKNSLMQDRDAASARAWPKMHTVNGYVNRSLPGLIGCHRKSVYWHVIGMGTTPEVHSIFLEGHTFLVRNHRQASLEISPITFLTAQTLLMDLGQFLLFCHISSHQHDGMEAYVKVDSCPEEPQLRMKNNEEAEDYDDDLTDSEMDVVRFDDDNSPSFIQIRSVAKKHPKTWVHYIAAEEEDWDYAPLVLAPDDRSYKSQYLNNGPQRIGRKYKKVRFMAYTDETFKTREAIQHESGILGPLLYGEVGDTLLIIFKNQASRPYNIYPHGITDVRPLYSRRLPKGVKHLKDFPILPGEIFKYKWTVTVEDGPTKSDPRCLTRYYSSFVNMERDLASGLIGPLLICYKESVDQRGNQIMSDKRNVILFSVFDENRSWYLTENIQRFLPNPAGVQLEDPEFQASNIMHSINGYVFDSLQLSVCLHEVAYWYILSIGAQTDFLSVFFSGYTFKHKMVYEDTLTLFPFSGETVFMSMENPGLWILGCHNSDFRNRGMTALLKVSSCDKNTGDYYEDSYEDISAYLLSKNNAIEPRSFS
# Sequence (P00451 1657-2351, chain 2 of 2): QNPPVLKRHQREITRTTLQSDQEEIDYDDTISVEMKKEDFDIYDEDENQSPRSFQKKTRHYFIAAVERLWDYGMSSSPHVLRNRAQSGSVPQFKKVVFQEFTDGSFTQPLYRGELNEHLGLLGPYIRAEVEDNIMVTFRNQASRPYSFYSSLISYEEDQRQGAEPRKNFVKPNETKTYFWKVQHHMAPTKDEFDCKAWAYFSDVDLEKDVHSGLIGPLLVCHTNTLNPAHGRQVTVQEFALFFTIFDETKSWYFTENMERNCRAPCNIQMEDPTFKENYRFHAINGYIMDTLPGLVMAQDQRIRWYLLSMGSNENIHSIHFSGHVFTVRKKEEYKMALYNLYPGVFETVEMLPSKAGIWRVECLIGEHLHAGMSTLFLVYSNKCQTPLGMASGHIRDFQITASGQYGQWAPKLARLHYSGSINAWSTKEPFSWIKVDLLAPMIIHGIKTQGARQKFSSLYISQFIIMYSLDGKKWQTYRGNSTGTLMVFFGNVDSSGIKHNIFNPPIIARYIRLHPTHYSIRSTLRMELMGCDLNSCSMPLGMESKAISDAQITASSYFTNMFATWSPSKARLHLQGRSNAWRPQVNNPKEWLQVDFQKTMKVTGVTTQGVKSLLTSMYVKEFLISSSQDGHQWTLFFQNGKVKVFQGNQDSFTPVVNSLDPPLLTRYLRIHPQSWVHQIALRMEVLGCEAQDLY
# testDetails: phage ELISA on the factor VIII target (REFACTO), anti-M13-HRP
measuredQuantity: ELISA signal (OD630)
Form entry: value (OD630) — number only.

Would you please look over these solved cases?
binder	measurement
FCHVFNFVHCS [TN9 phage isolate 01 (SEQ ID NO: 31)]	0.5
PHCNWLFPCSL [TN7 phage isolate D03]	0.2
FCWVHPFAHCL [TN9 phage isolate 02 (SEQ ID NO: 23)]	0.2
FHCIGVWFCLH [TN7 phage isolate A09]	0.1

Data request: Which value of ELISA signal has been reported for HSCGSWLFPCFA [TN7 phage isolate A06] in the records?
Data returned: 0.5

Data request: What would you report for HGCGAWFRPCHA [TN8 phage isolate 01 (SEQ ID NO: 18)] ?
Data returned: 0.2

Data request: What would you report for FCHVFPFLHCD [TN9 phage isolate 11 (SEQ ID NO: 32)] ?
Data returned: 0.2

Data request: What would you report for RLCSWISPCSA [TN7 phage isolate D04] ?
Data returned: 0.3

Data request: What would you report for HPCGSWFNPCAH [TN8 phage isolate 02 (SEQ ID NO: 13)] ?
Data returned: 0.3

Data request: What would you report for HLCFAWFRPCDA [TN8 phage isolate 12 (SEQ ID NO: 17)] ?
Data returned: 0.4

Data request: What would you report for FCWVFPFHHCF [TN9 phage isolate 06 (D06-TN9)] ?
Data returned: 0.3
